# System Tested: Leishmania DNA topoisomerase type IB (purified recombinant LTopIB) (Leishmania donovani, UniProt A0A3Q8IHS4+Q8WQM6)
# Sequence (Q8WQM6 entry or part of it): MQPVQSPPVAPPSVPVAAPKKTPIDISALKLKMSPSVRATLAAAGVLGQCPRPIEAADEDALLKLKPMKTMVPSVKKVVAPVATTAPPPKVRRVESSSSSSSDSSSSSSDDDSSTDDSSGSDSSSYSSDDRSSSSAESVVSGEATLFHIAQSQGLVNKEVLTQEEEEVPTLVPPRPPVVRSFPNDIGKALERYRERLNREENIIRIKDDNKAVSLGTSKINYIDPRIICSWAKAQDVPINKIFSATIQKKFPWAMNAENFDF
# Sequence (A0A3Q8IHS4 entry or part of it): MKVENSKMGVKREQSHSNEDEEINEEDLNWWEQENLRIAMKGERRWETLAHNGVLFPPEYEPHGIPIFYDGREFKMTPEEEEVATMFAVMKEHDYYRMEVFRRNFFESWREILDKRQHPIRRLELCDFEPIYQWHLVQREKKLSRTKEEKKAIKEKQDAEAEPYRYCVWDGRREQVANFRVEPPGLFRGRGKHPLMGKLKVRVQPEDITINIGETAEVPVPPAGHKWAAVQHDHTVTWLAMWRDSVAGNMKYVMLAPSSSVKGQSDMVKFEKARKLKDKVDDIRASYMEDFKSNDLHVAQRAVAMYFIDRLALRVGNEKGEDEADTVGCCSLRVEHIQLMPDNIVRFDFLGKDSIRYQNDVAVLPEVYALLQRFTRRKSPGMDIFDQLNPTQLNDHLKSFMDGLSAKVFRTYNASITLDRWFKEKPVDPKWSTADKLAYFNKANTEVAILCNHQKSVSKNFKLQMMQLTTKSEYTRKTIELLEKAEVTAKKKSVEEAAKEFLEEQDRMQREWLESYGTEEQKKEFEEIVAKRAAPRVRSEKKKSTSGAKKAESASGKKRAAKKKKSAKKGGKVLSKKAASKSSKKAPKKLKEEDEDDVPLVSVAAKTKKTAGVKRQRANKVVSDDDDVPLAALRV
# Test Summary: Plasmid relaxation assay (relaxation of supercoiled plasmid DNA)
# Assay type: biochemical
Experimental Endpoint: pIC50
# pIC50 = -log10(concentration in molar units)

# input Need pIC50, item CC[C@@]1(O)C(=O)OCc2c1cc1n(c2=O)Cc2cc3ccccc3nc2-1 [Camptothecin, reference compound]
# output 5.52

* * *

Below is a list of entries, each paired with its recorded melting point value.

Consider the following illustrative entries.
Molecule: COc1ccc([C@H]2[C@H](Cc3cc4ccccc4[nH]3)N[C@@]3(C(=O)Nc4ccccc43)[C@@H]2C(=O)c2ccc(Br)cc2)cc1 [25b]
melting point: 118 to 120 °C

Molecule: COc1ccc(C2C3CCCN3C3(C(=O)Nc4ccc(F)cc43)C2C(=O)c2ccc(Br)cc2)cc1 (stereo not drawn) [23c]
melting point: 126 to 128 °C

Molecule: COC(=O)C1CC2CCCN2C12C(=O)N(Cc1ccccc1)c1ccccc12 (stereo not drawn)
melting point: 138 to 140 °C

Molecule: O=C(c1ccccc1)[C@@H]1[C@@H](c2ccccc2)[C@@H]2CCCN2[C@@]12C(=O)Nc1ccc(Br)cc12 [23f]
melting point: 175 to 177 °C

Molecule: O=C(c1ccc(F)cc1)C1C(c2ccc(Cl)cc2Cl)C2CSCN2C12C(=O)Nc1ccccc12 (stereo not drawn)
melting point: 103 to 105 °C

Molecule: COc1ccc(C2C3CCCN3C3(C(=O)Nc4ccc([N+](=O)[O-])cc43)C2C(=O)c2ccc(Br)cc2)cc1 (stereo not drawn) [23e]
melting point: 111 to 113 °C

# input Need melting point, item O=C1NC(=O)C2(CC(c3ccccc3)N(Cc3ccccc3)C(c3ccccc3)C2)N1c1ccccc1 (stereo not drawn)
# output 142 to 144 °C

# input Need melting point, item O=C(c1ccc(F)cc1)C1C(c2ccc(Cl)cc2)C(Cc2cc3ccccc3[nH]2)NC12C(=O)Nc1ccc([N+](=O)[O-])cc12 (stereo not drawn) [25f]
# output 172 to 174 °C

# input Need melting point, item Cc1ccc(C(CC(=O)c2ccccc2)C2C(=O)Nc3ccccc32)cc1 (stereo not drawn)
# output 112 to 114 °C

# input Need melting point, item O=C(c1ccc(F)cc1)C1C(c2ccc(Cl)cc2)C(Cc2cc3ccccc3[nH]2)NC12C(=O)Nc1ccc(Br)cc12 (stereo not drawn) [25c]
# output 138 to 140 °C

Cited source for all entries: paper PMC10302753
